# System: Mus musculus
# Assay details: Inhibition of LPS-stimulated TNFalpha production in BALB/c mouse at 10 mg/kg, po
# Assay type: functional
Observed property: inhibition in vivo at 10 mg/kg (%)
Express your answer in %, writing the number without its unit.

Supply recorded inhibition in vivo at 10 mg/kg for Cc1cn(CC(O)(CC(C)(C)c2cccc3c2OCC3)C(F)(F)F)cc(C)c1=O (configuration not stated) here.
49

Supply recorded inhibition in vivo at 10 mg/kg for Cc1ccc(F)cc1C(C)(C)CC(O)(Cn1cc(C)c(=O)c(C)c1)C(F)(F)F (configuration not stated) here.
48

Supply recorded inhibition in vivo at 10 mg/kg for Cc1ccc(F)cc1C(C)(C)CC(O)(Cn1ccc(=O)c2ccccc21)C(F)(F)F (configuration not stated) here.
50

Supply recorded inhibition in vivo at 10 mg/kg for Cc1ccc(F)cc1C(C)(C)CC(O)(Cn1ccc(=O)c2cnccc21)C(F)(F)F (configuration not stated) here.
58

###

# Test system: HeLa
# Assay details: Activation of MMTV in HeLa cells measured by luciferase activity relative to Dexamethasone
# Format: functional, Homo sapiens
Observed property: Efficacy
Remember to follow the number with its unit.

Worked examples, 4 compounds total:
| Compound | Efficacy |
| --- | --- |
| CC(C)(CC(O)(Cn1ccc(=O)c2ccccc21)C(F)(F)F)c1cc(F)ccc1O (stereo not given) | 20% |
| COc1ccc(F)cc1C(C)(C)CC(O)(Cn1cc(C)c(=O)c(C)c1)C(F)(F)F (stereo not given) | 3% |
| COc1ccc(C)c(C(C)(C)CC(O)(Cn2ccc(=O)c3ccccc32)C(F)(F)F)c1 (stereo not given) | 6% |
| Cc1noc(=O)c2ccc(NC(=O)C(O)(CC(C)(C)c3cccc4c3OCC4)C(F)(F)F)cc12 (stereo not given) | 14% |

Supply recorded Efficacy for Cc1ccc(F)cc1C(C)(C)CC(O)(Cn1ccc(=O)c2ccccc21)C(F)(F)F (stereo not given) here.
2%

Supply recorded Efficacy for COc1ccc(F)cc1C(C)(C)CC(O)(Cn1ccc(=O)c2ccccc21)C(F)(F)F (stereo not given) here.
10%

Supply recorded Efficacy for CC(C)(CC(O)(Cn1ccc(=O)c2ccccc21)C(F)(F)F)c1ccc(F)cc1O (stereo not given) here.
35%

###

# Experimental system: Mineralocorticoid receptor (Homo sapiens, UniProt P08235)
# Sequence (P08235 whole entry): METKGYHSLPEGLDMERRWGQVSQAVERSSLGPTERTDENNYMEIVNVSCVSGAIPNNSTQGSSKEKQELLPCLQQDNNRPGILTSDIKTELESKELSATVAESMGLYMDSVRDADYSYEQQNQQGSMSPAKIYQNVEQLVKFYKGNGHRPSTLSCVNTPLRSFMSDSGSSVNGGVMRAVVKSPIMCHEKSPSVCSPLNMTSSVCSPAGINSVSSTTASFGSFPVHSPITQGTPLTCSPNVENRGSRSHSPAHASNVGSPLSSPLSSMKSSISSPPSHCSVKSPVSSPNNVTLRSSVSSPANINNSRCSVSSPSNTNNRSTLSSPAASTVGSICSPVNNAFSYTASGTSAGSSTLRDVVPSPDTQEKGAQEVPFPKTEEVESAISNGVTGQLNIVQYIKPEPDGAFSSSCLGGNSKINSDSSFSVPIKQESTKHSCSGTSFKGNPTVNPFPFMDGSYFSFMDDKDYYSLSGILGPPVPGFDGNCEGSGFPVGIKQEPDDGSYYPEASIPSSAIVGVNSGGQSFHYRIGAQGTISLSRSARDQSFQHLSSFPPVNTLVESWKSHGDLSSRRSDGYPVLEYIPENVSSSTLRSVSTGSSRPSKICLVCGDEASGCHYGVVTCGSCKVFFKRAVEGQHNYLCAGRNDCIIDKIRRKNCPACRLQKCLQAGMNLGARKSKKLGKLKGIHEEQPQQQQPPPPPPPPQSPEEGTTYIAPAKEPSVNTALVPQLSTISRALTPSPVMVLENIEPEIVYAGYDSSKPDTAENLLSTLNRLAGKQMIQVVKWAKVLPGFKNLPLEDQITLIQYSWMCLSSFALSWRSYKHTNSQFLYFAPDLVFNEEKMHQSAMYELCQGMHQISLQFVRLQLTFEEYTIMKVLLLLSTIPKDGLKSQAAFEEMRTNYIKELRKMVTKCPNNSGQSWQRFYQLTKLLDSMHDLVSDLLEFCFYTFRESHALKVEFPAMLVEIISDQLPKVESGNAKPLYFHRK
# Assay details: Inhibition of tetramethylrhodamine labeled dexamethasone binding to MR by FP assay
Observed property: IC50 (nM)
Express your answer in nM, writing the number without its unit.

Worked examples, 5 compounds total:
| Compound | Experimental system | IC50 / nM |
| --- | --- | --- |
| COc1ccc(F)cc1C(C)(C)CC(O)(Cn1cc(C)nc1C)C(F)(F)F (stereo not drawn) | Mineralocorticoid receptor (Homo sapiens, UniProt P08235) | 620 |
| COc1ccc(F)cc1C(C)(C)CC(O)(CN1C[C@@H](C)O[C@@H](C)C1)C(F)(F)F (stereo partly drawn) | Mineralocorticoid receptor (Homo sapiens, UniProt P08235) | 450 |
| COc1ccc(F)cc1C(C)(C)CC(O)(CN1C[C@H](C)O[C@@H](C)C1)C(F)(F)F (stereo partly drawn) | Mineralocorticoid receptor (Homo sapiens, UniProt P08235) | 1500 |
| Cc1noc(=O)c2ccc(NC(=O)C(O)(CC(C)(C)c3cccc4c3OCC4)C(F)(F)F)cc12 (stereo not drawn) | Mineralocorticoid receptor (Homo sapiens, UniProt P08235) | 38 |
| Cc1ccc(F)cc1C(C)(C)CC(O)(Cn1ccc(=O)c2ccccc21)C(F)(F)F (stereo not drawn) | Mineralocorticoid receptor (Homo sapiens, UniProt P08235) | 120 |

// next item, IC50 requested
Supply recorded IC50 for COc1ccc(F)cc1C(C)(C)CC(O)(CN1CCOc2ccccc21)C(F)(F)F (stereo not drawn) here.
310

###

pIC50: −log10 of the molar value.
// Progesterone receptor (Homo sapiens, UniProt P06401) pIC50 records

| Compound | Experimental system | pIC50 |
| --- | --- | --- |
| COc1ccc(F)cc1C(C)(C)CC(O)(CN1CCOCC1)C(F)(F)F (centres undefined) | Progesterone receptor (Homo sapiens, UniProt P06401) | < 5.70 |

// next item, pIC50 requested
Supply recorded pIC50 for COc1ccc(F)cc1C(C)(C)CC(O)(CN1CCOc2ccccc21)C(F)(F)F (centres undefined) here.
6.19

###

This listing pairs compounds with measured inhibition in vivo at 10 mg/kg.
# Tested on: Mus musculus
# Assay details: Inhibition of LPS-stimulated TNFalpha production in BALB/c mouse at 10 mg/kg, po
# Assay type: functional
Express your answer in %, writing the number without its unit.

Worked examples, 2 compounds total:
| Compound | inhibition in vivo at 10 mg/kg (%) |
| --- | --- |
| Cc1ccccc1C(C)(C)CC(O)(Cn1ccc(=O)c2ccccc21)C(F)(F)F (stereo not drawn) | 36 |
| CC(C)(CC(O)(Cn1ccc(=O)c2ccccc21)C(F)(F)F)c1cccc2c1OCC2 (stereo not drawn) | 49 |

// next item, inhibition in vivo at 10 mg/kg requested
Supply recorded inhibition in vivo at 10 mg/kg for CC(C)(CC(O)(Cn1ccc(=O)c2ccccc21)C(F)(F)F)c1cc(F)ccc1O (stereo not drawn) here.
55

###

# System: HeLa
# Assay details: Activation of MMTV in HeLa cells measured by luciferase activity relative to Dexamethasone
# Assay type: functional, Homo sapiens
Observed property: Efficacy (%)
Express your answer in %, writing the number without its unit.

Worked examples, 2 compounds total:
| Compound | Observed property | Result unit | Reported |
| --- | --- | --- | --- |
| COc1ccc(F)cc1C(C)(C)CC(O)(Cn1ccc(=O)c2cnccc21)C(F)(F)F (stereo not drawn) | Efficacy | % | 1 |
| Cc1ccccc1C(C)(C)CC(O)(Cn1ccc(=O)c2ccccc21)C(F)(F)F (stereo not drawn) | Efficacy | % | 1 |

// next item, Efficacy requested
Supply recorded Efficacy for C[C@]12C=CC(=O)C=C1CC[C@@H]1[C@@H]2[C@@H](O)C[C@@]2(C)[C@H]1CC[C@]2(O)C(=O)CO here.
91

###

# Experimental system: Progesterone receptor (Homo sapiens, UniProt P06401)
# Sequence (P06401 whole entry): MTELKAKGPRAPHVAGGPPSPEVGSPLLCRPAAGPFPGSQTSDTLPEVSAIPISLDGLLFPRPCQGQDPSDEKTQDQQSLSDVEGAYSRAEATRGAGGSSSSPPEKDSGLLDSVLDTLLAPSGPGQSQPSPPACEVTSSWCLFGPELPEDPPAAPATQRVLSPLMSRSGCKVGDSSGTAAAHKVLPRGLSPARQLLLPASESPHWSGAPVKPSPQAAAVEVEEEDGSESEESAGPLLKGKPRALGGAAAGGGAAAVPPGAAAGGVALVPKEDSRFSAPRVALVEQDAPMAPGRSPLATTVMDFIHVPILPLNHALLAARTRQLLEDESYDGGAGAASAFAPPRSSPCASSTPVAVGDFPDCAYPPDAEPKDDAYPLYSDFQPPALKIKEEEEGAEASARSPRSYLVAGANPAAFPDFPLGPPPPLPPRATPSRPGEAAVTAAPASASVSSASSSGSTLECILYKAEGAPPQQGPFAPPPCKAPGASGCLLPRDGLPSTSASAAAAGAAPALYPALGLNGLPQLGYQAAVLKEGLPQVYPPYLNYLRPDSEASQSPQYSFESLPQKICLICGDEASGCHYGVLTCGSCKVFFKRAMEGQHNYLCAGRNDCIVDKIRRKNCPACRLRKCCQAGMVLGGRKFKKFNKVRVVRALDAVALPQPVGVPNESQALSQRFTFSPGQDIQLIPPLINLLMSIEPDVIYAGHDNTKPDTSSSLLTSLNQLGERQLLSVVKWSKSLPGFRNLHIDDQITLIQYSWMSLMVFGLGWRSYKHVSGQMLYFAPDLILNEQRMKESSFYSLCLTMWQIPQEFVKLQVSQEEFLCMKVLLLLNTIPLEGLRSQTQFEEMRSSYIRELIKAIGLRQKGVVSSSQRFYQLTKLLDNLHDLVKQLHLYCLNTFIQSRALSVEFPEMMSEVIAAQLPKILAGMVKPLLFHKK
pIC50: −log10 of the molar value.
This listing pairs compounds with measured pIC50.

| Compound | pIC50 |
| --- | --- |
| COc1ccc(F)cc1C(C)(C)CC(O)(CN1C[C@@H](C)O[C@@H](C)C1)C(F)(F)F (some centres not stated) | < 5.70 |
| COc1ccc(F)cc1C(C)(C)CC(O)(Cn1cnc(=O)c2ccccc21)C(F)(F)F (configuration not stated) | < 5.70 |
| Cc1ccccc1C(C)(C)CC(O)(Cn1ccc(=O)c2ccccc21)C(F)(F)F (configuration not stated) | 6.62 |
| COc1ccc(F)cc1C(C)(C)CC(O)(CN1CCC(=O)CC1)C(F)(F)F (configuration not stated) | < 5.70 |
| COc1ccc(F)cc1C(C)(C)CC(O)(CN1C[C@H](C)O[C@@H](C)C1)C(F)(F)F (some centres not stated) | < 5.70 |
| COc1ccc(F)cc1C(C)(C)CC(O)(Cn1cc(C)nc1C)C(F)(F)F (configuration not stated) | < 5.70 |

// next item, pIC50 requested
Supply recorded pIC50 for CC(C)(CC(O)(Cn1ccc(=O)c2ccccc21)C(F)(F)F)c1ccccc1O (configuration not stated) here.
6.26
